assay name: Water solubility by HPLC
Format: physicochemical
setup conditions: water, thermodynamic from solid, deionized water, stirred overnight, HPLC 290 nm; read-out: S, water solubility
Text: The physicochemical characteristics of compounds directly determine their potential drug-like properties. Assessing a compound’s physicochemical properties before performing in vivo evaluations can guide further studies and minimize the time and cost associated with drug discovery. Therefore, parallel to the in vivo study, these solubilities of these compounds in water were experimentally measured using high-performance liquid chromatography (HPLC). […]
Reported values of solubility for individual entries

- compound: "CC(C)=CCC12OC(C)(C)C3CC(C=C4C(=O)c5c(OC(=O)N(C)C)cccc5OC431)C2=O (centres unmarked)"
  solubility / µM: 60
- compound: "CCN(C)C(=O)Oc1cccc2c1C(=O)C1=CC3CC4C(C)(C)OC(CC=C(C)C)(C3=O)C14O2 (centres unmarked)"
  solubility / µM: 30
